Data origin, for the record: PubChem BioAssay (NCI)

- Test system: M14 melanoma
- EXPERIMENTAL DETAILS: NCI tumour cell line growth inhibition, 48 h
ASSAY METRIC: TGI

COMPOUND: O=[N+]([O-])c1ccc(Sc2ncccn2)c([N+](=O)[O-])c1
RESULT: 18.4 µM

COMPOUND: Cc1cn(CC2=NCCN2)c(=O)[nH]c1=O
RESULT: > 100 µM

COMPOUND: Nc1nc(N)[n+]([O-])c(N)c1NCO
RESULT: > 100 µM

COMPOUND: Cc1ccc(S(=O)(=O)N/N=C/C(Br)=C(/Br)C(=O)O)cc1
RESULT: 18.2 µM

COMPOUND: COC(=O)Nc1nc2ccc(C(=O)c3ccc[nH]3)cc2[nH]1
RESULT: > 26.9 µM

Hello, I would appreciate it if you could give TGI for each entry below.
1. Cn1c(=O)n2n(c1=O)Cc1cccc3cccc(c13)C2
2. COc1ccc(/C(=C/c2cc(OC)c(OC)c(OC)c2)[N+](=O)[O-])cc1
3. O=C(c1ccccc1)c1nn(-c2ccc(Cl)cc2)c2nc3nc(-c4ccccc4)cc(=O)n3nc12
4. O=C1c2ccccc2-c2c1c1ccccc1c(=O)n2CCO
5. CC1=C2C(=O)O[C@@H](c3ccoc3)[C@]2(C)CCC1=O
6. CC(=O)[CH-]C(=O)c1ccccc1.CC(=O)[CH-]C(=O)c1ccccc1.CCN(CC)CC[O-].CCN(CC)CC[O-].Cl.[Ti+4]
7. O=C1CC2CC=C[C@H]3c4cc5c(cc4C(=O)N1C23)OCO5 (stereo partly specified)
8. CSCCC(NCc1c(O)ccc2ccc(=O)oc12)C(=O)O (stereo unspecified)

Result string:
> 100 µM
3.72 µM
> 100 µM
> 100 µM
> 100 µM
45.9 µM
> 50 µM
> 100 µM

----------
Provide the recorded TGI for the entries that follow.
- System: SF-539 CNS
- EXPERIMENTAL DETAILS: NCI tumour cell line growth inhibition, 48 h

See these solved cases before continuing.
COMPOUND: CCN(CC)CCNC(=O)c1ccc([N+](=O)[O-])cc1OC
TGI: > 100 µM
--
COMPOUND: CN1CCN(c2nc3ccccc3nc2C(=O)c2ccc(Cl)cc2)CC1
TGI: > 100 µM
--
COMPOUND: CC1=COC(=O)c2ccccc2N1
TGI: > 100 µM
--
COMPOUND: Cc1ccc(S(=O)(=O)N2CCCSCCSCCCSCC2)cc1
TGI: > 100 µM
--
COMPOUND: O=[N+]([O-])c1ccc(-c2ccc(/C=N/n3c(-c4ccc(Cl)cc4)n[nH]c3=S)o2)cc1
TGI: > 62.7 µM

Alright, here's another compound for you.
Query string: Entry under review: CC(=O)OCCC1c2ccccc2-n2nc(-c3ccccc3)c(O)c21 (stereo unspecified) . Reported TGI?
Result string: 44.7 µM

----------
Provide the recorded TGI for the entries that follow.
- Tested on: EKVX NSCLC
- EXPERIMENTAL DETAILS: NCI tumour cell line growth inhibition, 48 h

See these solved cases before continuing.
MOLECULE: O/N=c1/ccn(O)c2ccccc12
RESULT: 11.2 µM
//
MOLECULE: CC(=O)O[C@H]1C(=O)[C@@]2(C)C([C@H](OC(=O)c3ccccc3)[C@]3(O)C[C@H](OC(=O)[C@H](O)[C@H](NC(=O)c4ccccc4)c4ccc(Cl)cc4)C(C)=C1C3(C)C)C1(OC(C)=O)CO[C@@H]1C[C@@H]2O (some centres undefined)
RESULT: 40.6 µM
//
MOLECULE: Nc1ccn(C=C=CCO)c(=O)n1
RESULT: > 1000 µM
//
MOLECULE: O=C1C2CC(Cl)C(SSC3CC4C(=O)N(SC(Cl)(Cl)C(Cl)Cl)C(=O)C4CC3Cl)CC2C(=O)N1SC(Cl)(Cl)C(Cl)Cl (centres undefined)
RESULT: 15.5 µM

Hello, I would appreciate it if you could give TGI for each entry below.
1. Cc1cc(C)c(S(=O)(=O)N[C@@H](/C=C(\Br)CO)C(C)C)c(C)c1
2. O=C1C2=C(c3ccccc31)C(c1ccc(Cl)cc1)N1C(=O)CCSC1=N2 (centres undefined)
3. S=C(NNC1=NCCCN1)Nc1ccccc1
4. COC(=O)C1Cc2ccc(C)cc2C1=O (centres undefined)
5. O/N=C1/C(=C/c2ccc(F)cc2)CCCC1C(NO)c1ccc(F)cc1 (centres undefined)

Result string:
["> 100 µM", "> 100 µM", "> 100 µM", "> 100 µM", "> 100 µM"]

----------
Provide the recorded TGI for the entries that follow.
- System: EKVX NSCLC
- EXPERIMENTAL DETAILS: NCI tumour cell line growth inhibition, 48 h

COMPOUND: O=[N+]([O-])c1ccc(N/N=C\c2cc(Cl)ccc2O)nc1
TGI: > 100 µM
//
COMPOUND: CC[C@@H](CCCC[C@@H]1CC[C@H]2CC(=O)C[C@@H]12)OC
TGI: > 100 µM
//
COMPOUND: CC(C)Nc1[nH]c(C(=O)c2ccccc2)c(N)c1C(=S)Nc1ccccc1
TGI: > 100 µM

Hello, I would appreciate it if you could give TGI for each entry below.
1. CC(Cc1ccc(Cl)cc1Cl)NO (stereo not given)
2. O=S(=O)(c1cc(Cl)ccc1Cl)N1CCN(c2ccc(Cl)c(Cl)c2)CC1
3. COc1ncnc2c1cnn2Cc1cn(COCC(O)CO)nn1 (stereo not given)
4. Cc1cc(S(N)(=O)=O)c(SCc2nc(N)nc(N(C)C)n2)cc1Cl

Result string:
1: > 100 µM; 2: > 100 µM; 3: > 100 µM; 4: > 10 µM

----------
- Tested on: U251 CNS
Provide the recorded GI50 for the entries that follow.

COMPOUND: Cc1cc(NC(=O)C2c3ccccc3C(=O)N(CC(C)C)C2c2cccs2)no1 (centres undefined)
RESULT: 84.2 µM

Hello, I would appreciate it if you could give GI50 for each entry below.
1. O=C(CCCc1c[nH]c2ccccc12)NC1CC(=O)c2c(Br)sc(Br)c21 (centres undefined)
2. N#C/C(=C\c1c(-c2ccccc2)[nH]c2ccccc12)C(=O)c1ccc(Cl)cc1
3. O=C1C=C[C@]2(C[C@@H](c3cccc(C(F)(F)F)c3)O[C@@H](c3cccc(C(F)(F)F)c3)O2)O1

Result string:
1: 7.29 µM; 2: 1.11 µM; 3: 2.58 µM

----------
Provide the recorded TGI for the entries that follow.
- System: MCF7 breast
- EXPERIMENTAL DETAILS: NCI tumour cell line growth inhibition, 48 h
One number for each entry, in µM.

COMPOUND: COC(=O)[C@]12CC[C@@H](C)[C@H](C)[C@@H]1C1=CC[C@@H]3[C@@]4(C)CC(=O)[C@H](O)[C@@]5(C)COC(=C45)C[C@@]3(C)[C@]1(C)CC2
TGI / µM: 35.6

Query string: Find the measured TGI: item O=C(CCCc1c[nH]c2ccccc12)NC1CC(=O)c2c(Br)sc(Br)c21 (stereo not given) , target or system MCF7 breast.
Result string: 29.5

----------
- Tested on: M14 melanoma
- EXPERIMENTAL DETAILS: NCI tumour cell line growth inhibition, 48 h
ASSAY METRIC: TGI (µM)
One number for each entry, in µM.

See these solved cases before continuing.
COMPOUND: COc1cc(O)c(C(=O)/C=C/c2ccccc2)c(OC)c1
READOUT UNIT: µM
TGI: 84.1

COMPOUND: O=C(NCCN1C(=O)CN=C(c2ccc(Cl)cc2)c2cc(Cl)ccc21)OCc1ccccc1
READOUT UNIT: µM
TGI: 34.9

COMPOUND: CC(=O)O[C@H]1C(=O)[C@@]2(C)C([C@H](OC(=O)c3ccccc3)[C@]3(O)C[C@H](OC(=O)[C@H](O)[C@H](NC(=O)c4ccccc4)c4ccc(Cl)cc4)C(C)=C1C3(C)C)C1(OC(C)=O)CO[C@@H]1C[C@@H]2O (some centres undefined)
READOUT UNIT: µM
TGI: 0.027

Alright, here's another compound for you.
Query string: Entry under review: O=C1c2cc3c(cc2-c2c1c1cc(Cl)c(Cl)cc1c(=O)n2CCCn1ccnc1)OCO3 . Reported TGI?
Result string: 11.8

----------
- Test system: SF-268 CNS
- EXPERIMENTAL DETAILS: NCI tumour cell line growth inhibition, 48 h
Assign class by TGI: not lower than 20 µM means TRUE; lower than 20 µM means FALSE.

Some solved cases for reference:
COMPOUND: OB([O][Hg][c]1ccccc1)[O][Hg][c]1ccccc1
ASSIGNED CATEGORY: FALSE
--
COMPOUND: CC1=C(C(=O)Nc2ccc([N+](=O)[O-])cc2)C(c2ccco2)C(C(=O)Nc2ccc([N+](=O)[O-])cc2)=C(C)N1
ASSIGNED CATEGORY: TRUE
--
COMPOUND: Cc1c(C(=O)CSc2nc3ccc([N+](=O)[O-])cc3[nH]2)c(=O)n(-c2ccccc2)n1C
ASSIGNED CATEGORY: TRUE
--
COMPOUND: Cn1c(=O)n2n(c1=O)Cc1cccc3cccc(c13)C2
ASSIGNED CATEGORY: TRUE
--
COMPOUND: O=C(O)c1cccc(S(=O)(=O)NN2C(=O)CSC2c2ccccc2)c1 (stereo not given)
ASSIGNED CATEGORY: TRUE

Query string: Given O=[N+]([O-])c1cccc(N=C2c3ccccc3CN2c2cccc([N+](=O)[O-])c2)c1 , state whether its TGI is at least 20 µM.
Result string: TRUE

Query string: Okay, and COC(=O)[C@]12CC[C@@H](C)[C@H](C)[C@@H]1C1=CC[C@@H]3[C@@]4(C)CC(=O)[C@H](O)[C@@]5(C)COC(=C45)C[C@@]3(C)[C@]1(C)CC2 ?
Result string: TRUE

Query string: Okay, and Cc1ccc(S(=O)(=O)N/N=C/C(Br)=C(/Br)C(=O)O)cc1 ?
Result string: TRUE

Query string: Okay, and CC1=C(C(=O)Nc2ccccc2)C(c2ccc3c(c2)OCO3)C(C(=O)Nc2ccccc2)=C(C)N1 ?
Result string: TRUE

Query string: Okay, and CC(C)Nc1[nH]c(C(=O)c2ccccc2)c(N)c1C(=S)Nc1ccccc1 ?
Result string: TRUE

Query string: Okay, and CC(=O)c1ccc(Nc2cc(-n3ccnc3)nc3ccccc23)cc1 ?
Result string: TRUE

Query string: Okay, and CC(Cl)(/C=C/Cl)C(Cl)/C=C/C(Cl)(CCl)CBr (stereo not given) ?
Result string: FALSE

Query string: Okay, and COc1ccc2c(c1)c1nn(CCN(C)C)c3ccc4c(=O)n(CCN(C)C)c(=O)n2c4c13 ?
Result string: FALSE

Query string: Okay, and COc1cc2c(cc1OC)C(=O)C(Br)CC2 (stereo not given) ?
Result string: FALSE

Query string: Okay, and CC[C@@H]1CN2CCC1C[C@@H]2C(O)c1ccnc2ccc(OCCN3CCN(CCOc4ccc5nccc(C(O)[C@@H]6C[C@@H]7CCN6C[C@@H]7CC)c5c4)CC3)cc12 (stereo not given in full) ?
Result string: TRUE
